# Test system: U2OS
# Assay name: Multiplex assay against U2OS
# Type: toxicity, cell-based
# Cond: human, 48 h, 10 µM, compound concentration 10 uM, replicate 2
Values of Population Tubulin-Different-Phenotype (%) greater than or equal to 80% map to class 1; values below map to class 0.

Q: Item `COc1cc(Nc2nccc(-c3cnn4nc(OC)ccc34)n2)cc(C(F)(F)F)c1` with Population Tubulin-Different-Phenotype (%) of 80% or above?
A: class 0

Q: Item CC1=C(C(=O)Nc2cc3cn[nH]c3cc2F)C(c2ccc(C(F)(F)F)cc2)CC(=O)N1 (configuration not stated) with Population Tubulin-Different-Phenotype (%) of 80% or above?
A: class 0

Q: Item CCCSc1nc(N[C@@H]2C[C@H]2c2ccc(F)c(F)c2)c2nnn([C@@H]3C[C@H](OCCO)[C@@H](O)[C@H]3O)c2n1 [TICAGRELOR] with Population Tubulin-Different-Phenotype (%) of 80% or above?
A: class 1

Q: Item C[C@]12CC[C@@H]3c4ccc(O)cc4CC[C@H]3[C@@H]1CC[C@@H]2O [ESTRADIOL] with Population Tubulin-Different-Phenotype (%) of 80% or above?
A: class 0

Q: Item `CC(C)Oc1ccccc1C(=O)Nc1ccccc1C(=O)Nc1cccc(S(=O)(=O)C(F)(F)F)c1` with Population Tubulin-Different-Phenotype (%) of 80% or above?
A: class 1

Q: Item `Cl.O=C(O)c1cc(-c2ccc(C3CCNCC3)cc2)c2ccc(-c3ccc(C(F)(F)F)cc3)cc2c1` with Population Tubulin-Different-Phenotype (%) of 80% or above?
A: class 0

Q: Item `CCOC(=O)Nc1cc(-c2ccc(C)c(NS(C)(=O)=O)c2)nn2c(C)nnc12` with Population Tubulin-Different-Phenotype (%) of 80% or above?
A: class 1

Q: Item CCc1nn(CCCN2CCN(c3cccc(Cl)c3)CC2)c(=O)n1CCOc1ccccc1.Cl [NEFAZODONE HYDROCHLORIDE] with Population Tubulin-Different-Phenotype (%) of 80% or above?
A: class 1

Q: Item Cc1c[nH]c2nccc(Oc3c(F)cc(Nc4cc(Cl)nc(N)n4)cc3F)c12 [BAY-549] with Population Tubulin-Different-Phenotype (%) of 80% or above?
A: class 0

Q: Item CN1CCN(Cc2ccc(Nc3ncc(Cl)c(Nc4ccccc4S(=O)(=O)N(C)C)n3)cc2)CC1 [DUBERMATINIB] with Population Tubulin-Different-Phenotype (%) of 80% or above?
A: class 0

Q: Item COc1ccc(-c2ccc3ncc4c(c3c2)n(-c2ccc(N3CCNCC3)c(C(F)(F)F)c2)c(=O)n4C)cn1.O=C(O)/C=C\C(=O)O [BGT-226] with Population Tubulin-Different-Phenotype (%) of 80% or above?
A: class 0

Q: Item COc1ccccc1CN[C@H]1C2CCN(CC2)[C@H]1C(c1ccccc1)c1ccccc1 [CP-96345] with Population Tubulin-Different-Phenotype (%) of 80% or above?
A: class 0

Q: Item Cc1cccc(CN2CCN(C(c3ccccc3)c3ccc(Cl)cc3)CC2)c1.Cl.Cl (configuration not stated) with Population Tubulin-Different-Phenotype (%) of 80% or above?
A: class 0

Q: Item CC(C)(C)NC[C@H](O)COc1nsnc1N1CCOCC1 [TIMOLOL] with Population Tubulin-Different-Phenotype (%) of 80% or above?
A: class 0

Q: Item `CC(C)NC(=O)N1CC[C@H](NC2=Nc3cc(F)ccc3N(CC(F)F)c3ccc(Cl)cc32)C1` with Population Tubulin-Different-Phenotype (%) of 80% or above?
A: class 0

Q: Item `CNC(=O)Nc1ccc(-c2nc(N3CC4CCC(C3)O4)c3cnn(C4CCC5(CC4)OCCO5)c3n2)cc1` with Population Tubulin-Different-Phenotype (%) of 80% or above?
A: class 1

Q: Item CC(C)c1noc(N2CCC(COc3ccc(-c4ccc(S(C)(=O)=O)cc4)nc3)CC2)n1 [GSK-1292263] with Population Tubulin-Different-Phenotype (%) of 80% or above?
A: class 0
